Target: GST-Co-NF-kB (Capsaspora owczarzaki, UniProt F1ARL5 200-546)
Sequence: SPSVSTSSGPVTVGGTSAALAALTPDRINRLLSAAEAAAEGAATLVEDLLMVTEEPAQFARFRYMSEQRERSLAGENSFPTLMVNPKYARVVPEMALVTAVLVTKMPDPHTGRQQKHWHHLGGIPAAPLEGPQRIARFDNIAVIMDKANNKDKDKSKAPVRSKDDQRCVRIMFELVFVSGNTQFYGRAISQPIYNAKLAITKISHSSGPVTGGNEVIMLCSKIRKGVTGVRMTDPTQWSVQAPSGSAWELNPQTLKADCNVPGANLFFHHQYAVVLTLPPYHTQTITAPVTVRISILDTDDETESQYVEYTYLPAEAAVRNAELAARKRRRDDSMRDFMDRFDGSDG
Assay: protein-binding microarray (PBM); PBM: ~300 nM protein, 6 mM HEPES pH 7.8, 80 mM KCl, 0.5 mM EDTA, 0.5 mM EGTA, 6% glycerol, 35 ng/ul poly-dIdC, 1% milk, 1 h, room temperature; Ap Aiptasia and Nv Nematostella (sea anemones) / Co Capsaspora / Aq Amphimedon (sponge) / Dm Drosophila / Hu human; RHD is the Rel homology domain; high values mean tight binding
Conditions: dsDNA, one strand shown
# binding signal per record follows
Only the number, expressed in z-score, is required.

Worked examples follow.
orderedResidues: CCGATTAACATCAGGATCCCCCCTGATGTTAATCGGGTCTTGATTCGCTTGACGCTGCTG
measurementTarget: GST-Co-NF-kB (Capsaspora owczarzaki, UniProt F1ARL5 200-546)
binding signal, z-score: 5.45
//
orderedResidues: CCGATTAACATCAGGAGTCTCCCTGATGTTAATCGGGTCTTGATTCGCTTGACGCTGCTG
measurementTarget: GST-Co-NF-kB (Capsaspora owczarzaki, UniProt F1ARL5 200-546)
binding signal, z-score: 2.17
//
orderedResidues: CCGATTAACATCACGGGAAACCCTGATGTTAATCGGGTCTTGATTCGCTTGACGCTGCTG
measurementTarget: GST-Co-NF-kB (Capsaspora owczarzaki, UniProt F1ARL5 200-546)
binding signal, z-score: 3.68
//
orderedResidues: CCGATTAACATCAAGGGGATTTATGATGTTAATCGGGTCTTGATTCGCTTGACGCTGCTG
measurementTarget: GST-Co-NF-kB (Capsaspora owczarzaki, UniProt F1ARL5 200-546)
binding signal, z-score: 3.44
//
orderedResidues: CCGATTAACATCAGGGGAATTACTGATGTTAATCGGGTCTTGATTCGCTTGACGCTGCTG
measurementTarget: GST-Co-NF-kB (Capsaspora owczarzaki, UniProt F1ARL5 200-546)
binding signal, z-score: 7.45
//
orderedResidues: CCGATTAACATCATACTTCCCCATGATGTTAATCGGGTCTTGATTCGCTTGACGCTGCTG
measurementTarget: GST-Co-NF-kB (Capsaspora owczarzaki, UniProt F1ARL5 200-546)
binding signal, z-score: 4.69
//
orderedResidues: CCGATTAACATCAAATTTCCCCTTGATGTTAATCGGGTCTTGATTCGCTTGACGCTGCTG
measurementTarget: GST-Co-NF-kB (Capsaspora owczarzaki, UniProt F1ARL5 200-546)
binding signal, z-score: 7.98
//
orderedResidues: CCGATTAACATCAAGGGGGAGGGTGATGTTAATCGGGTCTTGATTCGCTTGACGCTGCTG
measurementTarget: GST-Co-NF-kB (Capsaspora owczarzaki, UniProt F1ARL5 200-546)
binding signal, z-score: 4.4

Turning now to a further record.
Task item: Suppose we examine the sequence CCGATTAACATCAGGAATCCCCCTGATGTTAATCGGGTCTTGATTCGCTTGACGCTGCTG ; what binding signal value has been reported?
Reply: 5.73
